TARGET_OR_SYSTEM: T1, human CAPRIN-1 protein on the cell surfaces of human cancer cell lines and in human cancer tissues (human, UniProt Q14444 2-709)
T1 sequence (looked up): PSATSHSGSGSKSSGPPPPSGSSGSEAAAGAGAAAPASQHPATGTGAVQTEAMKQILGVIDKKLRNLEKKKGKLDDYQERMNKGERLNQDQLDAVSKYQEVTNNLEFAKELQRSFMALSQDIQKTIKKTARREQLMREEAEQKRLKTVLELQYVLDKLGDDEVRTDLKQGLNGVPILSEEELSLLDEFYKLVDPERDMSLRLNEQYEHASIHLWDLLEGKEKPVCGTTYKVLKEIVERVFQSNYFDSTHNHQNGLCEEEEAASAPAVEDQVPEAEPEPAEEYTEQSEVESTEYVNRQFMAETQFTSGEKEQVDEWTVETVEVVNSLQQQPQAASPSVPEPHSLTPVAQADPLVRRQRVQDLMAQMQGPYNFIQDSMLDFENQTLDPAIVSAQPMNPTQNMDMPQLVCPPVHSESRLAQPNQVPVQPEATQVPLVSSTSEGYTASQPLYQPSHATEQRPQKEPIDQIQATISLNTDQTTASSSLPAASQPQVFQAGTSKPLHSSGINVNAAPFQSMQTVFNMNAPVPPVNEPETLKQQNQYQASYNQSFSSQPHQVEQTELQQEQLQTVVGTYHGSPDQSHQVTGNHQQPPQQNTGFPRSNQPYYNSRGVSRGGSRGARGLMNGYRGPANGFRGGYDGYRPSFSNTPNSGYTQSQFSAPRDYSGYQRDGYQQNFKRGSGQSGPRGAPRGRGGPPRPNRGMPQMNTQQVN
TEST_PROTOCOL: cell-based or functional assay
EXPERIMENTAL_READOUT: cytotoxic activity (ADCC) against SW756

Record excerpt, results attached:
{"BINDER": "anti-CAPRIN-1 mouse monoclonal antibody #5 (antibody, V domains shown, Mouse hybridoma antibody; detected with anti-mouse IgG) VH: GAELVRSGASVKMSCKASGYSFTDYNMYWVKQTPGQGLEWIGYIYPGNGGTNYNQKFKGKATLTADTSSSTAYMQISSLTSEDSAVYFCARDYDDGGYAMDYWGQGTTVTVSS VL: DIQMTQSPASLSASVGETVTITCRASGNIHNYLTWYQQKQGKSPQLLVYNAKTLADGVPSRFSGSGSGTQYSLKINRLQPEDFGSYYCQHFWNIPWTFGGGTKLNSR", "cytotoxic activity (ADCC) against SW756": "≥ 16%"}
{"BINDER": "anti-CAPRIN-1 mouse monoclonal antibody #6 (antibody, V domains shown, Mouse hybridoma antibody; detected with anti-mouse IgG) VH: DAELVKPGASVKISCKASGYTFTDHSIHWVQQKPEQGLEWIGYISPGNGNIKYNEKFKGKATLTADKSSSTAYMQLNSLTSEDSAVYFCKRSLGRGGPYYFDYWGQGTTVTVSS VL: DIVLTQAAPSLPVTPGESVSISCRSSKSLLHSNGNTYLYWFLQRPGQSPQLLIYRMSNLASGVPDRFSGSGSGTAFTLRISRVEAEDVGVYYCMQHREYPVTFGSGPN", "cytotoxic activity (ADCC) against SW756": "≥ 16%"}

## Input Would you mind telling me what cytotoxic activity (ADCC) against SW756 value was observed for human-chicken chimeric antibody #1 having the chicken monoclonal antibody #1 variable region (antibody, V domains shown, also called anti-CAPRIN-1 antibody #1; human-chicken chimeric monoclonal antibody (#1); not shown: human IgG1 H-chain constant region; human IgG1 L-chain constant region) VH: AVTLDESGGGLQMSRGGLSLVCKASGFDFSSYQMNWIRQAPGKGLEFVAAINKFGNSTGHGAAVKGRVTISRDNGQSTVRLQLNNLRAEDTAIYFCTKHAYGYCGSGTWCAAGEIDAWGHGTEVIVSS VL: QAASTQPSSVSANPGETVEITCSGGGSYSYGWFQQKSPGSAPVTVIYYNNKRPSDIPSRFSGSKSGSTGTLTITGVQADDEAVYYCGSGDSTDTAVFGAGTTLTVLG ?
## Output 29.7%
